Target: human Retinoid X Receptor beta (RXRb), RXRB (gene 6257)
Assay: ATG_RXRb_TRANS: Attagene TRANS-FACTORIAL HepG2 Assay for human Retinoid X Receptor beta (RXRb) (AID 2283013)
Results filed as inconclusive are left out. Activity calls are given as the source filed them. The calls were made as follows: active = hit-call score of the fitted dose curve at least 0.9, where 1 is the maximum; inconclusive = response in the unintended direction; inactive = score below 0.9.
Outcomes: 1 = active, 0 = inactive

Compound	Target Desc	Group
Sc1nc2ccccc2s1	human Retinoid X Receptor beta (RXRb), RXRB (gene 6257)	0
CN(C)Cc1cc(C(C)(C)C)c(O)c(C(C)(C)C)c1	human Retinoid X Receptor beta (RXRb), RXRB (gene 6257)	1
O=C(C1CCCCC1)N1CC(=O)N2CCc3ccccc3C2C1 (configuration not stated)	human Retinoid X Receptor beta (RXRb), RXRB (gene 6257)	0
CCCCCCCCCCCCCC	human Retinoid X Receptor beta (RXRb), RXRB (gene 6257)	0
Cc1cc(O)cc(C)c1Cl	human Retinoid X Receptor beta (RXRb), RXRB (gene 6257)	1
CCCCCCC1CCC(=O)O1 (configuration not stated)	human Retinoid X Receptor beta (RXRb), RXRB (gene 6257)	0
Clc1ccc(Sc2cc(Cl)c(Cl)cc2Cl)cc1	human Retinoid X Receptor beta (RXRb), RXRB (gene 6257)	1
CCCC(=O)OC/C=C(\C)CCC=C(C)C	human Retinoid X Receptor beta (RXRb), RXRB (gene 6257)	0
CCCCCC1CCCC(=O)O1 (configuration not stated)	human Retinoid X Receptor beta (RXRb), RXRB (gene 6257)	0
CCO[Si](OCC)(OCC)c1ccccc1	human Retinoid X Receptor beta (RXRb), RXRB (gene 6257)	0
O=C1CCCCCCCCCCCCCC1	human Retinoid X Receptor beta (RXRb), RXRB (gene 6257)	1
COc1ccccc1OCC(O)CO (configuration not stated)	human Retinoid X Receptor beta (RXRb), RXRB (gene 6257)	0
CC(=O)c1nccs1	human Retinoid X Receptor beta (RXRb), RXRB (gene 6257)	0
O=C(O)c1ccccc1C(=O)O	human Retinoid X Receptor beta (RXRb), RXRB (gene 6257)	0
CC1=NN(c2cc(Cl)c(S(=O)(=O)O)cc2Cl)C(=O)C1N=Nc1ccc(S(=O)(=O)O)cc1 (configuration not stated)	human Retinoid X Receptor beta (RXRb), RXRB (gene 6257)	0
CCC(=O)OCc1ccc(OC)cc1	human Retinoid X Receptor beta (RXRb), RXRB (gene 6257)	0
CCc1cc(C(N)=S)ccn1	human Retinoid X Receptor beta (RXRb), RXRB (gene 6257)	0
CCCCCCOC(=O)CCCCCCCC(=O)OCCCCCC	human Retinoid X Receptor beta (RXRb), RXRB (gene 6257)	0
CN(C)c1ccc(C(c2ccccc2)c2ccc(N(C)C)cc2)cc1	human Retinoid X Receptor beta (RXRb), RXRB (gene 6257)	0
CC(C)=CCOC(=O)c1ccccc1	human Retinoid X Receptor beta (RXRb), RXRB (gene 6257)	0
CCCCC(CC)COC(=O)CS (configuration not stated)	human Retinoid X Receptor beta (RXRb), RXRB (gene 6257)	0
O=C(CC(C(=O)OC1CCCCC1)S(=O)(=O)O)OC1CCCCC1 (configuration not stated)	human Retinoid X Receptor beta (RXRb), RXRB (gene 6257)	0
COC(OC)C(C)c1ccccc1 (configuration not stated)	human Retinoid X Receptor beta (RXRb), RXRB (gene 6257)	0
NC(=O)c1ccc([N+](=O)[O-])cc1Cl	human Retinoid X Receptor beta (RXRb), RXRB (gene 6257)	0
O=C(c1ccccc1)c1ccccc1O	human Retinoid X Receptor beta (RXRb), RXRB (gene 6257)	1
NC(=O)c1ccc(N)cc1	human Retinoid X Receptor beta (RXRb), RXRB (gene 6257)	0
CCCCCCCCCCC1CO1 (configuration not stated)	human Retinoid X Receptor beta (RXRb), RXRB (gene 6257)	0
Nc1ccc(S(=O)(=O)Nc2cnc3ccccc3n2)cc1	human Retinoid X Receptor beta (RXRb), RXRB (gene 6257)	1
CCCCCCC(O)CCCCCCCCCCC(=O)OC (configuration not stated)	human Retinoid X Receptor beta (RXRb), RXRB (gene 6257)	1
O=C1NC(=O)[C@@H]2CC=CC[C@H]12	human Retinoid X Receptor beta (RXRb), RXRB (gene 6257)	0
CCCc1c(OCCCCc2nn[nH]n2)ccc(C(C)=O)c1O	human Retinoid X Receptor beta (RXRb), RXRB (gene 6257)	1
NC(N)=Nc1nc(CSCCC(N)=NS(N)(=O)=O)cs1	human Retinoid X Receptor beta (RXRb), RXRB (gene 6257)	0
COC(=O)[C@]1(C)CCC[C@@]2(C)[C@H]1CC=C1C=C(C(C)C)CC[C@@H]12	human Retinoid X Receptor beta (RXRb), RXRB (gene 6257)	0
CCCCn1cc[n+](C)c1	human Retinoid X Receptor beta (RXRb), RXRB (gene 6257)	0
Cc1ccnc(N)c1	human Retinoid X Receptor beta (RXRb), RXRB (gene 6257)	0
CCCCNC(N)=O	human Retinoid X Receptor beta (RXRb), RXRB (gene 6257)	0
COC(=O)/C=C\C(=O)OC	human Retinoid X Receptor beta (RXRb), RXRB (gene 6257)	0
CN(C)CCCN1c2ccccc2CCc2ccc(Cl)cc21	human Retinoid X Receptor beta (RXRb), RXRB (gene 6257)	1
Cc1ccccc1S(N)(=O)=O	human Retinoid X Receptor beta (RXRb), RXRB (gene 6257)	0
[O-][n+]1ccc(Cl)cc1	human Retinoid X Receptor beta (RXRb), RXRB (gene 6257)	0
CC(C)(C)NC(=O)[C@@H]1CN(Cc2cccnc2)CCN1C[C@@H](O)C[C@@H](Cc1ccccc1)C(=O)N[C@H]1c2ccccc2C[C@H]1O	human Retinoid X Receptor beta (RXRb), RXRB (gene 6257)	0
CCCOCCC	human Retinoid X Receptor beta (RXRb), RXRB (gene 6257)	0
C1=CCC=C1	human Retinoid X Receptor beta (RXRb), RXRB (gene 6257)	0
O=C(Oc1ccccc1)c1ccccc1	human Retinoid X Receptor beta (RXRb), RXRB (gene 6257)	0
Cc1cc(C)c(S(=O)(=O)O)cc1N=Nc1cc(S(=O)(=O)O)c2ccccc2c1O	human Retinoid X Receptor beta (RXRb), RXRB (gene 6257)	0
CCC(C)C1N=C(C)C(C)S1 (configuration not stated)	human Retinoid X Receptor beta (RXRb), RXRB (gene 6257)	0
N#CCN(CC#N)CCN(CC#N)CC#N	human Retinoid X Receptor beta (RXRb), RXRB (gene 6257)	0
c1cc[c]([Bi]([c]2ccccc2)[c]2ccccc2)cc1	human Retinoid X Receptor beta (RXRb), RXRB (gene 6257)	1
C=C(C)C(=O)OCC1CCCO1 (configuration not stated)	human Retinoid X Receptor beta (RXRb), RXRB (gene 6257)	0
OCCN(CCO)c1cccc(Cl)c1	human Retinoid X Receptor beta (RXRb), RXRB (gene 6257)	0
Nc1nnc(-c2ccc([N+](=O)[O-])o2)o1	human Retinoid X Receptor beta (RXRb), RXRB (gene 6257)	0
c1ccc2c(c1)Oc1ccccc1S2	human Retinoid X Receptor beta (RXRb), RXRB (gene 6257)	0

* * *

Biological target: mouse Estrogen Receptor alpha (Era), Esr1 (gene 13982) (UniProt P19785)
Sequence (P19785 whole entry, looked up): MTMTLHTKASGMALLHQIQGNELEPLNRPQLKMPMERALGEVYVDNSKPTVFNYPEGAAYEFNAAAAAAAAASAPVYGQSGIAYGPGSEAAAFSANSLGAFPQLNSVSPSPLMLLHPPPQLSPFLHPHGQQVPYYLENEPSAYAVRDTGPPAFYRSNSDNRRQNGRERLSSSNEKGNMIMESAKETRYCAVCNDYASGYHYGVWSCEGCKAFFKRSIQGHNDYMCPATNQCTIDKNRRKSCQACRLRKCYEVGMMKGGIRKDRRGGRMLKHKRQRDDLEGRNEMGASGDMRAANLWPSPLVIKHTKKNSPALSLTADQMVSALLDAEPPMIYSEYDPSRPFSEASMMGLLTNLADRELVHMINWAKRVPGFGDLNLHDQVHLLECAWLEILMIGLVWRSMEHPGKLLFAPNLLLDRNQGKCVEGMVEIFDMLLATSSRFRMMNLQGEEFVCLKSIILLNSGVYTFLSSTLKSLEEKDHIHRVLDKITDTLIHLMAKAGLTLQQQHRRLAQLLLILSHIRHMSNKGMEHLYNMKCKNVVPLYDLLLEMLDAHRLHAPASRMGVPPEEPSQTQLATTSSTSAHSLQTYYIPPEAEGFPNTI
Assay: NVS_NR_mERa: NovaScreen (NVS) Nuclear Receptor Binding Assay for mouse Estrogen Receptor alpha (Era) (AID 2283378);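 also: hit means loss of bound radioligand signal relative to DMSO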
Results filed as inconclusive are left out. The source made the active and inactive calls. Rule for the calls: active = hit-call score of the fitted dose curve at least 0.9, where 1 is the maximum; inconclusive = response in the unintended direction; inactive = score below 0.9.

Compound	outcome
COC(=O)CCCC(=O)O	inactive
COC(OC)C(C)c1ccccc1 (stereo not drawn)	inactive
Cc1cccc(NC(=S)N(C)C)c1	inactive

* * *

Assay: ATG_M_19_TRANS: Attagene TRANS-FACTORIAL HepG2 Assay for M19 Transcription Factor (Internal Marker) (AID 2282974)
Conditions: HepG2 Attagene TRANS-FACTORIAL M19 internal marker reporter
Results filed as inconclusive are left out. Calls of active or inactive are those of the source. Rule for the calls: active = hit-call score of the fitted dose curve at least 0.9, where 1 is the maximum; inconclusive = response in the unintended direction; inactive = score below 0.9.
Quantity: outcome

Molecule	Value Observed
CCC(C)=NO	inactive
O=C(CC(C(=O)OC1CCCCC1)S(=O)(=O)O)OC1CCCCC1 (stereo not given)	inactive
CCCCCCCCCCC1CO1 (stereo not given)	inactive
CCC(C)(CCC(C)C)C(=O)O (stereo not given)	inactive
C=CN1CCCCCC1=O	inactive
CC(=O)c1nccs1	inactive
CC1=NN(c2cc(Cl)c(S(=O)(=O)O)cc2Cl)C(=O)C1N=Nc1ccc(S(=O)(=O)O)cc1 (stereo not given)	inactive
CCO[Si](OCC)(OCC)c1ccccc1	inactive
Cc1ccccc1S(=O)(=O)O	inactive
CC(C)(Oc1ccc(Cl)cc1)C(=O)O	inactive
NC(=O)c1ccc([N+](=O)[O-])cc1Cl	inactive
CC(C)(C)NC(=O)[C@@H]1CN(Cc2cccnc2)CCN1C[C@@H](O)C[C@@H](Cc1ccccc1)C(=O)N[C@H]1c2ccccc2C[C@H]1O	inactive
CC[N+](CC)(CC(=O)Nc1c(C)cccc1C)Cc1ccccc1	inactive
CC=CC(=O)O	inactive
CCOC(=O)CC(=O)OCC	inactive

* * *

Target: Cellular tumor antigen p53 (Homo sapiens) (UniProt P04637)
Sequence (P04637 whole entry, looked up): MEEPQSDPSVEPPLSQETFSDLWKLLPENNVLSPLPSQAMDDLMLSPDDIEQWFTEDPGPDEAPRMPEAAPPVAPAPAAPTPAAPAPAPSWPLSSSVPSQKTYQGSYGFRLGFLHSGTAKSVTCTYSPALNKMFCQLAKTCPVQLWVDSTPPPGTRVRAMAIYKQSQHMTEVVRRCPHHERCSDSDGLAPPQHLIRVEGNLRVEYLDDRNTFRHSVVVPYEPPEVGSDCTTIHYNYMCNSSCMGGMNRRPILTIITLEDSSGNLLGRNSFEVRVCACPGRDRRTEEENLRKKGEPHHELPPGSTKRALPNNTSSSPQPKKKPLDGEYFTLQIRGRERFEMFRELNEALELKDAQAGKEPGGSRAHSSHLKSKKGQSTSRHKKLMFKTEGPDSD
Experiment: TOX21_p53_BLA_p5_ratio: Tox21 HCT-116 p53 Agonism Beta-lactamase Assay, Ratio, Phase 5 (AID 2283599)
Records with an inconclusive call do not appear. Calls of active or inactive are those of the source. Rule for the calls: active = hit-call score of the fitted dose curve at least 0.9, where 1 is the maximum; inconclusive = response in the unintended direction; inactive = score below 0.9.
Outcomes: 1 for active, -1 for inactive

Compound	Group
C[C@H]1[C@@H](OC(=O)CCC(=O)O)O[C@@H]2OC3(C)CC[C@H]4[C@H](C)CC[C@@H]1[C@@]24OO3	-1
C=CCN1C[C@H](C(=O)N(CCCN(C)C)C(=O)NCC)C[C@@H]2c3cccc4[nH]cc(c34)C[C@H]21	-1
CC(C)(C)C(=O)C(Oc1ccc(Cl)cc1)n1ccnc1 (stereo unspecified)	-1
O=C(O)CCC(=O)C(=O)O	-1
CS(=O)(=O)Nc1ccc([N+](=O)[O-])cc1Oc1ccccc1	-1
CC(C)(C#N)Nc1nc(Cl)nc(NC2CC2)n1	-1
CN1C(=O)CC(C)(c2ccccc2)C1=O (stereo unspecified)	-1
CSc1ccc(/C=C2/C(C)=C(CC(=O)O)c3cc(F)ccc32)cc1	1
Cc1ccccc1S(N)(=O)=O	-1
Cc1ccc(N=Nc2c(O)c(C(=O)O)cc3ccccc23)c(S(=O)(=O)O)c1	-1
c1csc(SSc2cccs2)c1	-1
